Would you mind telling me the reported IC50 of each entry?

Form field IC50 for item COc1ncc(Br)cc1Nc1cc(Cl)cc(CC(=O)Nc2cncc3ccccc23)c1 on SARS-CoV-2 Main Protease (SARS-CoV-2) (UniProt P0DTD1): 0.681 µM

// IC50 (SARS-CoV-2 Main Protease (SARS-CoV-2) (UniProt P0DTD1)) for O=C(NCC1(C(=O)Nc2cncc3ccccc23)CCOc2ccc(Cl)cc21)C1COCCN1CC(F)(F)F (stereo not given) = 21.6 µM

Result for CC(NC(=O)c1cc2n(n1)CCO2)(C(=O)Nc1cncc2ccccc12)c1ccc(Cl)c(Cl)c1 (stereo not given) , tested on SARS-CoV-2 Main Protease (SARS-CoV-2) (UniProt P0DTD1), IC50: 8.52 µM

Item: Cn1nc(C(=O)NC(C)(C(=O)Nc2cncc3ccccc23)c2ccc(Cl)c(Cl)c2)cc1C#N (stereo not given) | System: SARS-CoV-2 Main Protease (SARS-CoV-2) (UniProt P0DTD1) | IC50: 10.3 µM

# IC50 measured on SARS-CoV-2 Main Protease (SARS-CoV-2) (UniProt P0DTD1) for item COc1cc(Cl)nc(Nc2cc(Cl)cc(CC(=O)Nc3cncc4ccccc34)c2)n1 = 0.504 µM

Observed IC50, SARS-CoV-2 Main Protease (SARS-CoV-2) (UniProt P0DTD1), O=C(CCl)N1CCN(S(=O)(=O)c2ccsc2)CC1 : 1.63 µM

SARS-CoV-2 Main Protease (SARS-CoV-2) (UniProt P0DTD1) IC50 of O=C(CCl)N1CCN(C2(c3cccc(Cl)c3)CC2)CC1 is 52.3 µM

Fill in: SARS-CoV-2 Main Protease (SARS-CoV-2) (UniProt P0DTD1) IC50 for CSC1=C(C#N)C2(CCCCC2)C(C#N)=C(NC(=O)CCl)N1 = 1.14 µM

Measured on SARS-CoV-2 Main Protease (SARS-CoV-2) (UniProt P0DTD1), O=C(CCl)Nc1nc2c(S(=O)(=O)NCCc3ccccc3)cccc2s1 has a documented IC50 of 13.9 µM

Record CNC(=O)c1cc(Cl)cc(CC(=O)Nc2cnccc2C)c1 ; system SARS-CoV-2 Main Protease (SARS-CoV-2) (UniProt P0DTD1); IC50 = 51.5 µM

----------
Please respond with reported relative solubility at 100 uM for every item in the list.
- condition-label: 100.0 µM
In your answer, state the number alone without any accompanying words.

molecule O=C(CCl)N1CCCC(c2nc(-c3cccnc3)nc3ccccc23)C1 (stereo not given) , relative solubility at 100 uM observed: 0.89

In plain terms, C=CC(=O)N(c1cc(C)cc(N)c1)C(C(=O)NC(C)(C)C)c1cccnc1 (stereo not given) has a documented relative solubility at 100 uM of 0.98

Recorded result, COC(=O)C(Cc1ccccc1)C(C)NC(=O)C(C)n1ccnc1 (stereo not given) , relative solubility at 100 uM: 1

relative solubility at 100 uM for COc1cccc2c1OCC(NC(=O)c1cc(=O)[nH]c3cc(F)ccc13)C2 (stereo not given) is 0.86

Please fill in: relative solubility at 100 uM reported for CC(C)(C)CC(=O)C(C#N)C(=O)Nc1ccccc1 (stereo not given) = 1

Recorded result, C=CC(=O)N(c1ccc(S(F)(F)(F)(F)F)cc1)C(C(=O)NC(C)(C)C)c1cccnc1 (stereo not given) , relative solubility at 100 uM: 0.9

So, CN(CCNC(=O)c1cc(=O)[nH]c2ccccc12)c1ccccc1 ? Its relative solubility at 100 uM was 0.77

molecule C=CC(=O)N(c1ccc2ncsc2c1)C(C(=O)Nc1ccc(OC)cc1C)c1cccnc1 (stereo not given) , relative solubility at 100 uM observed: 0.92

relative solubility at 100 uM recorded for this molecule, COC(=O)c1sc(NS(=O)(=O)c2ccc(CF)cc2)nc1C(C)(C)C , is 0.99

relative solubility at 100 uM in this record for C=CC(=O)N(c1ccc(S(F)(F)(F)(F)F)cc1)C(C(=O)Nc1ccc(OC)cc1C)c1cccnc1 (stereo not given) : 0.75

// relative solubility at 100 uM lookup, molecule = C=CC(=O)N1CCN(C(=O)c2cccc(Cl)c2)CC1 , result: 0.99

// relative solubility at 100 uM lookup, molecule = C=CC(=O)N(c1ccc(C(C)(C)C)cc1)C(C(=O)NCC1CCOC1)c1cccnc1 (stereo not given) , result: 0.99

Reported relative solubility at 100 uM for Cc1[nH]c2ccccc2c1/C=N/N(C)C(=O)c1ccc2c(c1)OCO2 was 0.77

Recorded relative solubility at 100 uM (molecule Cc1ccnc(C)c1NC(=O)C1CC2CC2C1 (stereo not given) ): 1

Record CCN(CC1COc2ccccc2O1)C(=O)c1cc(=O)[nH]c2ccc([N+](=O)[O-])cc12 (stereo not given) , field relative solubility at 100 uM: 1

Reported relative solubility at 100 uM ( Cc1ccc(C)c(NC(=O)[C@H]2CNC(=O)C2)c1 (stereo in doubt) ) = 0.98

Per the records, this molecule ( C=CC(=O)N(c1ccc(C(C)(C)C)cc1)C(C(=O)NC(C)(C)C)c1cnc[nH]1 (stereo not given) ) has relative solubility at 100 uM equal to 0.89

The recorded relative solubility at 100 uM for entry COc1ccc2[nH]cc(CCNS(C)(=O)=O)c2c1 equals 0.86

Sure, the documented relative solubility at 100 uM for Cc1nc(-c2cccc(CNC(=O)Nc3cccc(CN4CCCC4=O)c3)c2)n[nH]1 is 0.98

Value of measured relative solubility at 100 uM for the entry O=C(CCl)Nc1cccc(N2CCCC2=O)c1 : 1

Lab note: Cc1ccncc1NC(=O)CC(C)(C)NC(=O)c1cccc2[nH]ccc12 gave relative solubility at 100 uM of 0.99

The recorded relative solubility at 100 uM for CC(CCc1ccccc1)N1CCN(C(=O)CCl)CC1 (stereo not given) is 1

relative solubility at 100 uM reported for this molecule Cc1ccncc1NC(=O)Nc1ccccc1 : 1

Looking up CC1CCCC(OCc2cccc(NC(=O)NC(C)c3ccn[nH]3)c2)C1 (stereo not given) , I see its relative solubility at 100 uM listed as 0.85

relative solubility at 100 uM for O=C(Cc1ccc(Cl)s1)Nc1cccnc1 is 1

Input Cc1ccnc2[nH]c(CC3CCN(C(=O)CCl)CC3)nc12 . Output relative solubility at 100 uM: 1

Measured relative solubility at 100 uM, CC(=O)N1CCN(Cc2cccc(C#N)c2)CC1 : 0.99

Measured relative solubility at 100 uM, Cc1nnc(NC(=O)Cc2cccc(Cl)c2F)s1 : 0.68

Per the records, this molecule ( O=C(NCc1ccno1)c1ccccc1OC1CCCCC1 ) has relative solubility at 100 uM equal to 1

Entry under test: Cc1ccnn1CC(=O)NCC(NC(=O)C(C)C#N)c1ccccc1 (stereo not given) . Its relative solubility at 100 uM was 1

The molecule identified as COc1ccc2nc(C)cc(C(=O)NN)c2c1 registered its relative solubility at 100 uM at 1

Just so you know, measured relative solubility at 100 uM for C=CC(=O)N(c1ccc(C(C)(C)C)cc1)C(C(=O)NCCCC(=O)OCC)c1cccnc1 (stereo not given) came out at 0.96

Entry C=CC(=O)N(c1ccc(C(C)(C)C)cc1)C(C(=O)NC(C)(C)C)c1cncc(OCC)c1 (stereo not given) , relative solubility at 100 uM reported as 0.89

Form field relative solubility at 100 uM, entry NS(=O)(=O)c1ccc(N2CCC([C@@H]3CCCO3)CC2)cc1 (stereo in doubt) : 1

Reported relative solubility at 100 uM for O=C(Cc1cccnc1Cl)Nc1cccc(OCCc2ccccc2)c1 was 0.27

So, CC1(C)Cc2cccc(OCCNC(=O)c3cc(=O)[nH]c4cc(F)ccc34)c2O1 ? Its relative solubility at 100 uM was 0.97

Per the records, this molecule ( Cn1nncc1CC(=O)NC(c1ccccc1)c1nc2ccccc2n1C (stereo not given) ) has relative solubility at 100 uM equal to 1

So for C#Cc1cccc(N(C(=O)C=C)C(C(=O)NC(C)(C)C)c2cccnc2)c1 (stereo not given) , the logged relative solubility at 100 uM turned out to be 1.01

GET /value?item= Cc1ccncc1NC(=O)C(C)c1cccc(Cl)c1 (stereo not given) &field=relative solubility at 100 uM returns 1

Quick note, relative solubility at 100 uM for C=CC(=O)N(c1ccc(N(C)C)c(C)c1)C(C(=O)Nc1c(C)cccc1CC)c1cccnc1 (stereo not given) landed at 0.77

Sample Cc1ccncc1NC(=O)C12CCC(CO1)C2 (stereo not given) ; relative solubility at 100 uM observed: 1

// field: relative solubility at 100 uM; key: O=C(Cc1cccnc1Br)Nc1cccc(OCCn2cncn2)c1 ; value = 1

relative solubility at 100 uM for Cc1[nH]ncc1NC(=O)Cc1cccc(Cl)c1 is 1

Input CC(C(=O)Nc1cnccc1C)=C1CC1 . Output relative solubility at 100 uM: 1

GET /value?item= N#CCN1CCN(Cc2cc(Cl)cc3ccccc23)CC1 &field=relative solubility at 100 uM returns 0.92

These entries and their values trace back to the COVID Moonshot data (paper PMC11187573).
